- Test system: M. kansasii CNCTC My 235/80 (identical with ATCC 12478; MK 235/80)
- PROCEDURE SUMMARY: in vitro antimycobacterial MIC, dilution micromethod in Šula's semisynthetic medium
- Format: cell-based, Mycobacterium kansasii
- MEASUREMENT PARAMETERS: Mycobacterium kansasii, ATCC12478, 168 h, read-out: MIC MK 235/80 7-d
Give MIC for every item shown.
The reply should be a number in µM, with the unit left off.

Problem: Given the compound CCCCCCCOc1ccccc1NC(=O)OC(CN(CCC)CCC)CN1CCCC1.Cl.Cl (stereo not drawn) [1d] , what is its reported MIC?
Result: 16

Problem: Need MIC of CCCCCOc1ccccc1NC(=O)OC(CN(CCC)CCC)CN1CCCCCC1.O=C(O)C(=O)O (stereo not drawn) [1j] , thanks.
Result: 16

Problem: Any idea what its MIC is? The compound is CCCCCOc1cccc(NC(=O)OC(CN(CCC)CCC)CN2CCCCCC2)c1.Cl.Cl (stereo not drawn) [1n]
Result: 8

Problem: What does the data say about its MIC? Entry: CCCCCOc1cccc(NC(=O)OC(CN(CCC)CCC)CN2CCCC2)c1.Cl.Cl (stereo not drawn) [1f]
Result: 16

Problem: # MIC lookup, item CCCCCCOc1cccc(NC(=O)OC(CN(CCC)CCC)CN2CCCCCC2)c1.Cl.Cl (stereo not drawn) [1o]
Result: 8

Problem: For CCCCCCCOc1cccc(NC(=O)OC(CN(CCC)CCC)CN2CCCC2)c1.Cl.Cl (stereo not drawn) [1h] , what is its reported MIC?
Result: 8

====

- PROCEDURE SUMMARY: lipophilicity by isocratic RP-HPLC (log k, k, log kw, S)
- Type: physicochemical
- MEASUREMENT PARAMETERS: mobile phase MeOH/water 90:10 (v/v)
- Text: Octadecyl-functionalized silica gel was currently used as a stationary phase (SPh) and a […] of two solvents at different volume ratios modified retention properties of the SPh. […] The MeOH modifier was preferred because of similarity of both observed and extrapolated lipophilicity parameters with the ones determined in the octan-1-ol/water partition system, considering also sensitivity to H-bond donor properties of investigated compounds [41]. […]
ENDPOINT: k (retention factor)
Write the value as a bare number.

Problem: Value lookup for k (retention factor); key = CCCCOc1ccccc1NC(=O)OC(CN(CCC)CCC)CN1CCCCCC1 (stereo not shown)
Result: 4.2073

Problem: What value of measured k (retention factor) is listed for CCCCCCCOc1ccccc1NC(=O)OC(CN(CCC)CCC)CN1CCCC1.Cl.Cl (stereo not shown) ?
Result: 5.0373

Problem: Param item = CCCCOc1ccccc1NC(=O)OC(CN(CCC)CCC)CN1CCCC1 (stereo not shown) ; retrieve measured k (retention factor).
Result: 2.4877

Problem: What value of k (retention factor) has been reported for the following compound? CCCCOc1cccc(NC(=O)OC(CN(CCC)CCC)CN2CCCCCC2)c1 (stereo not shown)
Result: 1.8599

Problem: Name the reported k (retention factor) value associated with the compound CCCCCCOc1cccc(NC(=O)OC(CN(CCC)CCC)CN2CCCC2)c1 (stereo not shown)
Result: 2.3329

Problem: So what does the record say about k (retention factor) for CCCCOc1cccc(NC(=O)OC(CN(CCC)CCC)CN2CCCC2)c1 (stereo not shown) ?
Result: 1.4054

Problem: Consider the compound shown here: CCCCCCCOc1cccc(NC(=O)OC(CN(CCC)CCC)CN2CCCCCC2)c1.Cl.Cl (stereo not shown) What is its recorded k (retention factor)?
Result: 4.0476

Problem: Any idea what its k (retention factor) is? The compound is CCCCCCOc1ccccc1NC(=O)OC(CN(CCC)CCC)CN1CCCC1 (stereo not shown)
Result: 4.0300

Problem: So what's the measured k (retention factor) for this one? CCCCCOc1ccccc1NC(=O)OC(CN(CCC)CCC)CN1CCCC1 (stereo not shown)
Result: 3.2092

Problem: Consider the compound shown here: CCCCCOc1cccc(NC(=O)OC(CN(CCC)CCC)CN2CCCC2)c1.Cl.Cl (stereo not shown) What is its recorded k (retention factor)?
Result: 1.7972

====

- PROCEDURE SUMMARY: surface tension, drop count method, Traube stalagmometer
- Format: physicochemical
- MEASUREMENT PARAMETERS: aqueous solution c = 2.0 × 10^−3 M, 21 °C; water γ = 0.07259 N/m
- Protocol: Surface tension (relative surface activity; γ) of aqueous solutions of the compounds 1a–p (c = 2.0 × 10^−3 M) was determined by a drop count technique using a Traube stalagmometer. All evaluated substances were able to decrease surface tension of water (γ = 0.07259 N/m) at 21 °C. Surface tension (relative surface activity; γ) of the derivatives 1a–p was determined by a drop count method using a glassy Traube stalagmometer (Kavalier Glass, Prague, Czech Republic). […]
Would you mind telling me the reported surface tension γ (relative surface activity) of each entry?
All answers are understood in N/m, so give the number only.

Problem: I would be grateful if you could share the reported surface tension γ (relative surface activity) for CCCCOc1ccccc1NC(=O)OC(CN(CCC)CCC)CN1CCCCCC1 (centres unmarked) .
Result: 0.06302

Problem: What value of surface tension γ (relative surface activity) has been reported for the following molecule? CCCCCCCOc1ccccc1NC(=O)OC(CN(CCC)CCC)CN1CCCC1.Cl.Cl (centres unmarked)
Result: 0.05985

Problem: Bench note: what surface tension γ (relative surface activity) did CCCCCCOc1cccc(NC(=O)OC(CN(CCC)CCC)CN2CCCCCC2)c1.Cl.Cl (centres unmarked) show?
Result: 0.05925

Problem: Please give the measured surface tension γ (relative surface activity) for this molecule: CCCCCOc1cccc(NC(=O)OC(CN(CCC)CCC)CN2CCCC2)c1.Cl.Cl (centres unmarked)
Result: 0.06285

Problem: May I ask what surface tension γ (relative surface activity) has been recorded for CCCCOc1cccc(NC(=O)OC(CN(CCC)CCC)CN2CCCC2)c1 (centres unmarked) ?
Result: 0.06316

====

- PROCEDURE SUMMARY: lipophilicity by isocratic RP-HPLC (log k, k, log kw, S)
- Format: physicochemical
- MEASUREMENT PARAMETERS: mobile phase MeOH/water 85:15 (v/v)
# label = bin(measured k (retention factor)), where bins are category 1 (below 5), category 2 (5 to below 7), category 3 (7 or more)

Problem: Please report the category associated with CCCCCCCOc1cccc(NC(=O)OC(CN(CCC)CCC)CN2CCCCCC2)c1.O=C(O)C(=O)O (stereo not shown) , nothing else.
Result: category 3

Problem: Which category does the recorded k (retention factor) put CCCCCCOc1ccccc1NC(=O)OC(CN(CCC)CCC)CN1CCCC1 (stereo not shown) in?
Result: category 2

Problem: For the record CCCCCOc1ccccc1NC(=O)OC(CN(CCC)CCC)CN1CCCC1 (stereo not shown) , report the class its k (retention factor) corresponds to.
Result: category 1

Problem: Which of the defined bands does the recorded k (retention factor) of CCCCOc1cccc(NC(=O)OC(CN(CCC)CCC)CN2CCCCCC2)c1 (stereo not shown) sit within?
Result: category 1

Problem: State the band of CCCCCOc1cccc(NC(=O)OC(CN(CCC)CCC)CN2CCCCCC2)c1.Cl.Cl (stereo not shown)
Result: category 1

Problem: For this compound, which bin applies? CCCCOc1ccccc1NC(=O)OC(CN(CCC)CCC)CN1CCCC1 (stereo not shown)
Result: category 1

Problem: Class label required: CCCCCCCOc1cccc(NC(=O)OC(CN(CCC)CCC)CN2CCCCCC2)c1.Cl.Cl (stereo not shown)
Result: category 2

Problem: Please indicate the class for CCCCOc1cccc(NC(=O)OC(CN(CCC)CCC)CN2CCCC2)c1 (stereo not shown) based on its k (retention factor).
Result: category 1

Problem: For this compound, which bin applies? CCCCCCCOc1cccc(NC(=O)OC(CN(CCC)CCC)CN2CCCC2)c1.Cl.Cl (stereo not shown)
Result: category 2

Problem: Exercise: read the entry CCCCCOc1ccccc1NC(=O)OC(CN(CCC)CCC)CN1CCCCCC1.O=C(O)C(=O)O (stereo not shown) and state which class it falls under.
Result: category 3

Problem: Which class holds CCCCCCCOc1ccccc1NC(=O)OC(CN(CCC)CCC)CN1CCCC1.Cl.Cl (stereo not shown) ?
Result: category 3

Problem: In plain terms, what class is CCCCCOc1cccc(NC(=O)OC(CN(CCC)CCC)CN2CCCC2)c1.Cl.Cl (stereo not shown) ?
Result: category 1

Problem: Dear colleague, I would appreciate it if you could identify the bin for CCCCCCOc1cccc(NC(=O)OC(CN(CCC)CCC)CN2CCCC2)c1 (stereo not shown) and reply at your convenience.
Result: category 1

Problem: For the record CCCCOc1ccccc1NC(=O)OC(CN(CCC)CCC)CN1CCCCCC1 (stereo not shown) , report the class its k (retention factor) corresponds to.
Result: category 2

Problem: Lab note: which band did CCCCCCOc1ccccc1NC(=O)OC(CN(CCC)CCC)CN1CCCCCC1 (stereo not shown) land in?
Result: category 3
